target entity: T1, polypeptide GC3pep (human)
T1 construct: also called membrane proximal polypeptide GC3pep
T1 peptide: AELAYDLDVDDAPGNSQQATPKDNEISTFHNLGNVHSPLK
measurement protocol: ELISA, GC3pep coated, antibody 0.1 nM;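 also: antibody allowed to bind the coated plate 2 h at 37 °C, then detected via HRP-conjugated secondary antibody and TMB development for 10 min, stopped with HCl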
experimental readout: OD450 nm (OD450 nm)
Numeric answer only, unit OD450 nm assumed.

binder	experimental readout	measured
F2.92.1 (antibody, human IgG1, kappa, V domains shown, human-murine chimeric antibody) VH: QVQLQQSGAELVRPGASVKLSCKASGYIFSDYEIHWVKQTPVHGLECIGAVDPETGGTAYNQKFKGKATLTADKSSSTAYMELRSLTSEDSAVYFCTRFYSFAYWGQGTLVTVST VL: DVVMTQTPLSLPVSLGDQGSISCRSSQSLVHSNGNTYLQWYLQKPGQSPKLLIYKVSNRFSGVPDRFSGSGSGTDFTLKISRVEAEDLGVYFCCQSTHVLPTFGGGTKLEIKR	OD450 nm	0.85

Value of measured OD450 nm for the entry F2.39.2 (antibody, human IgG1, kappa, V domains shown, human-murine chimeric antibody) VH: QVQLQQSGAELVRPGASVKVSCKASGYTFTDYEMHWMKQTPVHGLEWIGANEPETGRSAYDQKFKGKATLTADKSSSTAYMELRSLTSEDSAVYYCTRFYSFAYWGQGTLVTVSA VL: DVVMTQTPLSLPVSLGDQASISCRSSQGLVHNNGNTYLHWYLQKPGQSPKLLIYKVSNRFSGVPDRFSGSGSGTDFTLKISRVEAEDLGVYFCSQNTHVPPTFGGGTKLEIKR : 1.35

Value of measured OD450 nm for the entry F2.55.11 (antibody, human IgG1, kappa, V domains shown, human-murine chimeric antibody) VH: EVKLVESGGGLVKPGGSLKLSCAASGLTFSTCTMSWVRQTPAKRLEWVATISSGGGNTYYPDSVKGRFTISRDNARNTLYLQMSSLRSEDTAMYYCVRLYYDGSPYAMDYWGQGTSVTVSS VL: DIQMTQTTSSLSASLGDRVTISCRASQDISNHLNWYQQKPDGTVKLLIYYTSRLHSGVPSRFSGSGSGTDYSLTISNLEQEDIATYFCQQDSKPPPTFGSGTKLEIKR : 1.34
